Molecular target: T1, protein A56 of the oncolytic virus OTS-412 (vaccinia virus (OTS-412), UniProt P08714 17-315)
T1 construct: also called OTS-412-A56; protein A56 variant
T1 chain: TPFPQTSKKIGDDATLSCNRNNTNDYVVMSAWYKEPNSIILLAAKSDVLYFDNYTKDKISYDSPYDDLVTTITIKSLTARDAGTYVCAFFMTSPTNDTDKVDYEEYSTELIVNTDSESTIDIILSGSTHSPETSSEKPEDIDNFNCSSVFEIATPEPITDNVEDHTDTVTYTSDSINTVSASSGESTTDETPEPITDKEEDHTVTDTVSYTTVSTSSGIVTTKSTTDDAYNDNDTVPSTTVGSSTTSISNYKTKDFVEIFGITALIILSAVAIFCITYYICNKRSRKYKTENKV
Experiment: flow cytometry, PC3 cells treated with OTS-412 (overlay, FIG. 74)
Below: a set of entries, each annotated with reported binding signal (flow cytometry, %).

Worked set:
# input Reported binding signal (flow cytometry, %) for A56-44G01 (Ab55) (antibody, V domains shown) VH: QVQLVESGGGVVQPGRSLRLSCAASGFTFSSYAMHWVRQAPGKGLEWVAVISYDGSNKYYADSVKGRFTISRDNSKNTLYLQMNSLRAEDTAVYYCAKDLWGRVGALVGALDLWGQGTMITVSS VL: SYELTQGPSLSVSPGQTANIICSGDNLRTKYVSWYQQKPGQSPILVIYQDTRRPSGIPARFSGSNSGNTATLTISGTQAMDEADYYCQAWDSGNYVFGTGTKVTVL : what is it?
# output ≥ 60%

# input Request the reported binding signal (flow cytometry, %) associated with A56-02A02 (Ab13) (antibody, V domains shown) VH: QMQLVESGAEVKKTGSSVKVSCKASGDTLTYRFLHWVRQAPGQAPEWMGWITPFNDNTNYAQKFQDRVTITRDRSMSTAYMELSSLRSEDTAVYYCATGGGNNYYGMEVWGQGTPITVSS VL: SYELTQPLSLSVSPGQTASITCSGDKLGDKFTSWYQQQPGQSPVLVIYQDAKRPSGIPERFSGSNSGSTATLTISGTQSMDEADYYCQAWDSSSVVFGGGTKLTVL
# output ≥ 60%

Proceeding to the next binder to report its binding signal (flow cytometry, %).
# input Reported binding signal (flow cytometry, %) for A56-02C07 (Ab19) (antibody, V domains shown) VH: QVQLVESGAEVRRPGSSVKVSCKTSGVTFSGYVLSWVRQAPGHGLEWMGRIIPLIDVENYAREFQGRMKITADKSTNTVYMELNNLRSEDTAVYYCAKSVVRGLDYYYYGFDVWGQGTTVTVSS VL: SYELTQPPSLSVAPGKTARITCGGNNIGSKSVHWYQQKPGQAPRLVTYYDGNRPSGIPERFSGSNSGNTATLIISRVEAGDEADYYCQVWDSSSDQGVFGTGTKVTVL : what is it?
# output ≥ 60%

Recorded values, source patent US20220389085A1.
